Data credit: patent US7504537B2

Molecular target: MMP-14 (MT1-MMP) (Homo sapiens, UniProt P50281)
Construct: purchased Biogenesis, supplied by Cosmobio (Nakarai Tesku)
Assay: Test 5 MMP-14 (MT1-MMP) inhibiting activity test
Assay type: biochemical
Details: human recombinant MT1-MMP, 37° C.; read-out: MMP-14 inhibition activity value
pIC50: −log10 of the molar value.
Measured Parameter: pIC50

> print(dat)
                                   molecule                           target.of.assay  measured.parameter  observed
1  CS(=O)(=O)c1ccc(Oc2ccc(S(=O)(=O)N(CC(=O)O)CC(=O)NO)cc2)cc1  MMP-14 (MT1-MMP) (Homo sapiens, UniProt P50281)               pIC50    < 5.30
2  CS(=O)(=O)c1ccc(Oc2ccc(S(=O)(=O)NCC(=O)NO)cc2)cc1  MMP-14 (MT1-MMP) (Homo sapiens, UniProt P50281)               pIC50    < 5.30
3  CS(=O)(=O)c1ccc(Oc2ccc(CC3Sc4ccc(C(=O)O)cc4N(CC(=O)NO)C3=O)cc2)cc1 (stereo not drawn)  MMP-14 (MT1-MMP) (Homo sapiens, UniProt P50281)               pIC50    < 6.00

----------
Some compounds, each annotated with its measured IC50.
Biological target: MMP-13 (Homo sapiens, UniProt P45452)
Construct: a fragment of 767 bp encoding original 84 amino acids of complete MMP-13 and encoding 164 amino acids
Experiment: Test 2 Test on MMP-13 inhibition activity (fluorogenic peptide substrate)
Settings: activated MMP-13, 37° C.
Measured Parameter: IC50 (nM)

> print(dat)
                         compound.structure                        target.of.assay  scale.unit  observed
1  CCOC(=O)CCN(C1(C(=O)NO)CCOCC1)S(=O)(=O)c1ccc(Oc2ccc(S(C)(=O)=O)cc2)cc1  MMP-13 (Homo sapiens, UniProt P45452)          nM      11.2
2  CCOCCN(C1(C(=O)NO)CCCC1)S(=O)(=O)c1ccc(Oc2ccc(S(C)(=O)=O)cc2)cc1  MMP-13 (Homo sapiens, UniProt P45452)          nM       0.6
3  CCOC(=O)CN(C1(C(=O)NO)CCCC1)S(=O)(=O)c1ccc(Oc2ccc(S(C)(=O)=O)cc2)cc1  MMP-13 (Homo sapiens, UniProt P45452)          nM       4.1
